Sourced from patent US6686209B2

Test system: antibodies against Δ^9-THC
Assay: Cross-reactivity by displacement of cannabinol-based tracer from immobilized antibody (continuous flow)
Format: binding
Conditions: sample with 25 ng/mL of unlabeled substance; cannabinol-based tracer (FIG. 10) displaced; 0 ng/mL baseline 422

>  <molecule>
C=C(C)[C@@H]1CCC(C)=C[C@H]1c1c(O)cc(CCCCC)cc1O [Cannabidiol, cannabidiol]

>  <readout.units>
mV

>  <MAX FI (mV)>
624

$$$$
>  <molecule>
CCCCCc1cc(O)c2c(c1)OC(C)(C)[C@@H]1CCC(C(=O)O)=C[C@@H]21 [THCA, 9-carboxy-Δ^9-THC]

>  <readout.units>
mV

>  <MAX FI (mV)>
8700

$$$$
>  <molecule>
CCCCCc1cc(O)c2c(c1)OC(C)(C)[C@@H]1CCC(C)=C[C@@H]21 [Δ^9-THC, Δ^9-tetrahydrocannabinol]

>  <readout.units>
mV

>  <MAX FI (mV)>
1602

$$$$
>  <molecule>
CCCCCc1cc(O)c2c(c1)OC(C)(C)[C@@H]1CC=C(C)C[C@@H]21 [Δ^8-THC]

>  <readout.units>
mV

>  <MAX FI (mV)>
1488

$$$$
>  <molecule>
CCCCCc1cc(O)c2c(c1)OC(C)(C)c1ccc(C)cc1-2 [Cannabinol]

>  <readout.units>
mV

>  <MAX FI (mV)>
1266

$$$$
